Reported Cell line selectivity: EC50 (AT1 KO)/EC50 (WT) by item:
System: T. brucei AT1 KO
Assay: 96-well manual assay on AT1 double knock out T. brucei (P2 transporter knock out)
Format: cell-based, Trypanosoma brucei
Settings: manual assay
readout-label: Cell line selectivity: EC50 (AT1 KO)/EC50 (WT)

{"columns": ["compound", "result-number"],
 "data": [
  ["Nc1nc(N)nc(NCCCNC(=O)CCc2ccc(S(=O)(=O)n3c(C4(O)C=CC(=O)C=C4)cc4ccccc43)cc2)n1", 1.1],
  ["N=C(N)c1ccc(/N=N/Nc2ccc(C(=N)N)cc2)cc1 [Berenil, reference compound]", 11],
  ["COC(=O)CCc1ccc(S(=O)(=O)n2c(C3(O)C=CC(=O)C=C3)cc3ccccc32)cc1", 1.3]
]}
